Test system: Staphylococcus aureus
Assay: Antibacterial activity against Staphylococcus aureus ATCC 25923 by two fold serial dilution method
Format: functional
Some compounds, each annotated with its measured MIC.
# answer = value followed by unit

Known MIC results, listed for orientation:
# SMILES RECORD, REPORTED RESULT
rows = [
    ("COc1ccc2cc3[n+](cc2c1OCCN(CCn1cncn1)Cc1ccc(Cl)c(Cl)c1)CCc1cc2c(cc1-3)OCO2.[Cl-]", "8 µg/mL"),
    ("Fc1ccccc1CN(CCBr)CCn1cncn1", "64 µg/mL"),
    ("Clc1ccc(CN(CCBr)CCn2cncn2)cc1", "128 µg/mL"),
]

Can you share its MIC? I mean this compound: Clc1ccc(CN(CCBr)CCn2cncn2)c(Cl)c1 64 µg/mL

Can you share its MIC? I mean this compound: Clc1ccc(CN(CCBr)CCn2cncn2)cc1Cl 64 µg/mL

Can you share its MIC? I mean this compound: COc1ccc2cc3[n+](cc2c1OC)CCc1cc2c(cc1-3)OCO2 512 µg/mL

Can you share its MIC? I mean this compound: COc1ccc2cc3[n+](cc2c1OCCN(CCn1cncn1)Cc1ccccc1Cl)CCc1cc2c(cc1-3)OCO2.[Cl-] 8 µg/mL

Can you share its MIC? I mean this compound: CCn1cc(C(=O)O)c(=O)c2cc(F)c(N3CCNCC3)cc21 0.5 µg/mL

Can you share its MIC? I mean this compound: COc1ccc2cc3[n+](cc2c1OCCN(CCn1cncn1)Cc1cccc(F)c1)CCc1cc2c(cc1-3)OCO2.[Cl-] 8 µg/mL

Can you share its MIC? I mean this compound: COc1ccc2cc3[n+](cc2c1OCCN(CCn1cncn1)Cc1ccc(Cl)cc1Cl)CCc1cc2c(cc1-3)OCO2.[Cl-] 8 µg/mL

====

Test system: Staphylococcus aureus
Test: Antibacterial activity against Staphylococcus aureus ATCC 25923 by two fold serial dilution method
Assay type: functional
OBSERVABLE: MIC (µg/mL)
The reply should be a number in µg/mL, with the unit left off.

Known MIC results, listed for orientation:
# MOLECULE, MIC, µg/mL
measured = [
    ("Fc1cccc(CN(CCBr)CCn2cncn2)c1", 64),
    ("O=C(N[C@H](CO)[C@H](O)c1ccc([N+](=O)[O-])cc1)C(Cl)Cl [CHLORAMPHENICOL]", 16),
    ("Clc1ccccc1CN(CCBr)CCn1cncn1", 128),
    ("Fc1ccc(CN(CCBr)CCn2cncn2)c(F)c1", 64),
]

// next item, MIC requested
Can you share its MIC? I mean this molecule: COc1ccc2cc3[n+](cc2c1OCCN(CCn1cncn1)Cc1ccccc1F)CCc1cc2c(cc1-3)OCO2.[Cl-] 4

====

Test system: Staphylococcus aureus
Assay: Antibacterial activity against Staphylococcus aureus ATCC 25923 by two fold serial dilution method
Format: functional
OBSERVABLE: MIC (µg/mL)
The reply should be a number in µg/mL, with the unit left off.

Known MIC results, listed for orientation:
# SMILES RECORD, OBSERVABLE, UNIT INFO, REPORTED RESULT
records = [
    ("COc1ccc2cc3[n+](cc2c1OCCN(CCn1cncn1)Cc1ccc(F)cc1F)CCc1cc2c(cc1-3)OCO2.[Cl-]", "MIC", "µg/mL", 4),
    ("Clc1cccc(CN(CCBr)CCn2cncn2)c1", "MIC", "µg/mL", 128),
    ("COc1ccc2cc3[n+](cc2c1OCCN(CCn1cncn1)Cc1ccc(Cl)cc1)CCc1cc2c(cc1-3)OCO2.[Cl-]", "MIC", "µg/mL", 16),
]

// next item, MIC requested
Can you share its MIC? I mean this compound: COc1ccc2cc3[n+](cc2c1OCCN(CCn1cncn1)Cc1cccc(Cl)c1)CCc1cc2c(cc1-3)OCO2.[Cl-] 8
